# tested-target: Aurora kinase A (Homo sapiens)
# assay-method-text: Binding affinity to GST-tagged Aurora A after 1 hr by ELISA
Activity calls are given as the source filed them.
Classes used: t (active), f (inactive)

> print(dat)
                                   substance  assigned.label
 1  H-AELAALEAELAALEGRSEDPVCSWGKLAALKAKLAALKA-OH               t
 2  H-AELAALEAELAALEGLEGKSMGFIGKLAALKAKLAALKA-OH               t
 3  H-AELAALEAELAALEGKVYMFWTIMGKLAALKAKLAALKA-OH               t
 4  H-AELAALEAELAALEGSGMLAHFSWGKLAALKAKLAALKA-OH               t
 5  H-AELAALEAELAALEGRRAVWPFGFGKLAALKAKLAALKA-OH               t
 6  H-AELAALEAELAALEGSQDNARSLWGKLAALKAKLAALKA-OH               t
 7  H-AELAALEAELAALEGWVQVAQKVRGKLAALKAKLAALKA-OH               t
 8  H-AELAALEAELAALEGNISRFWVLAGKLAALKAKLAALKA-OH               t
 9  H-AELAALEAELAALEGYEGQFMWLIGKLAALKAKLAALKA-OH               t
10  H-AELAALEAELAALEGSRNQMYWLYGKLAALKAKLAALKA-OH               t
11  H-AELAALEAELAALEGRDQVMWFLHGKLAALKAKLAALKA-OH               t
12  H-AELAALEAELAALEGWRRRLNNWWGKLAALKAKLAALKA-OH               t
13  H-AELAALEAELAALEGKGTQMWWLLGKLAALKAKLAALKA-OH               t
14  H-AELAALEAELAALEGARSLVAQMTGKLAALKAKLAALKA-OH               t
15  H-AELAALEAELAALEGAPCLVMTTAGKLAALKAKLAALKA-OH               t
16  H-AELAALEAELAALEGGSPRWYELLGKLAALKAKLAALKA-OH               t
17  H-AELAALEAELAALEGQVGSTRLLSGKLAALKAKLAALKA-OH               t
18  H-AELAALEAELAALEGVGEFSVSLLGKLAALKAKLAALKA-OH               t
19  H-AELAALEAELAALEGWVGMREVWRGKLAALKAKLAALKA-OH               t
20  H-AELAALEAELAALEGLQTMWHSLWGKLAALKAKLAALKA-OH               t
21  H-AELAALEAELAALEGGGGGGGKLAALKAKLAALKAY-NH2               f
22  H-AELAALEAELAPLEGYVSAGSQLWDGKLAALKAKLAALKA-OH               t

###

# tested-target: Aurora kinase A (Homo sapiens) (UniProt O14965)
# Sequence (O14965 whole entry): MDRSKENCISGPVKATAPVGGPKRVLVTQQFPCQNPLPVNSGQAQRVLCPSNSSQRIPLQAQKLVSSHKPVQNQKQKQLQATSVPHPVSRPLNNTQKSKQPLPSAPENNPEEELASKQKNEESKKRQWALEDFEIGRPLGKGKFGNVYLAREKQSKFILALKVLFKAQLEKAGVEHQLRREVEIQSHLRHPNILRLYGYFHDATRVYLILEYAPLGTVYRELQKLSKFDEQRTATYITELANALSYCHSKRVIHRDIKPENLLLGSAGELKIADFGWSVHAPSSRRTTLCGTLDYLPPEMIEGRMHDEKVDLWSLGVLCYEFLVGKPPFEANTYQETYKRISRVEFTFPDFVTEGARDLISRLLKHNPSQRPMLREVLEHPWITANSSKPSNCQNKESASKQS
# assay-method-text: Inhibition of Aurora A at 100 uM by IMAP fluorescence polarization assay
Active and inactive are the calls of the source.
test-readout: inhibition

> print(dat)
                                  substance  meas.value
1  H-AELAALEAELAALEGRRVVVSFAWDGKLAALKAKLAALKA-OH         35%
2  H-AELAALEAELAALEGGGGGGGKLAALKAKLAALKAY-NH2    inactive
3  H-AELAALEAELAALEGARHFYVQSVGKLAALKAKLAALKA-OH    inactive
4  H-AELAALEAELAALEGERRLIIFNSGKLAALKAKLAALKA-OH         20%
5  H-AELAALEAELAALEGVGEFSVSLLGKLAALKAKLAALKA-OH    inactive
6                         H-GRRVVVAFAWD-NH2    inactive
7  H-AELAALEAELAALEGSSERKLVLLGKLAALKAKLAALKA-OH         17%
